Provenance of the data: ChEMBL document CHEMBL4196004

assay: Cmax in Sprague-Dawley rat at 30 mg/kg administered via oral gavage by HPLC analysis; type: ADME, organism-based; set-up: dose 30 mg/kg, route oral; conditions: in vivo
PROPERTY: Cmax (ng/mL)
Give just the number in ng/mL; leave the unit off.

>  <MOLECULE SMILES>
CC#C[C@]1(O)CC[C@H]2[C@@H]3CCC4=CC(=O)CCC4=C3[C@@H](c3ccc(N(C)C(=O)c4ccc(Cl)c(Cl)c4)cc3)C[C@@]21C

>  <Cmax (ng/mL)>
550

$$$$

Challenge: Indicate the recorded Cmax value for this compound: `CC#C[C@]1(O)CC[C@H]2[C@@H]3CCC4=CC(=O)CCC4=C3[C@@H](c3ccc(N(C)C)cc3)C[C@@]21C`
Response given: 360

----------
Documented IC50 across a set of molecules
test system: SUM149PT; test: Antiproliferative activity against human SUM149PT cells after 48 hrs by SRB assay; assay type: functional, cell-based
Give just the number in µM; leave the unit off.

Below are worked cases with known answers.
>  <MOLECULE SMILES>
CC#C[C@]1(O)CC[C@H]2[C@@H]3CCC4=CC(=O)CCC4=C3[C@@H](c3ccc(N(C)C(=O)c4cccc(Cl)c4)cc3)C[C@@]21C

>  <MEASURED RESULT>
14.3

$$$$
>  <MOLECULE SMILES>
CC#C[C@]1(O)CC[C@H]2[C@@H]3CCC4=CC(=O)CCC4=C3[C@@H](c3ccc(N(C)C(=O)c4cccc(OC)c4)cc3)C[C@@]21C

>  <MEASURED RESULT>
18

$$$$

Then this molecule:
Challenge: Indicate the recorded IC50 value for this molecule: `CC#C[C@]1(O)CC[C@H]2[C@@H]3CCC4=CC(=O)CCC4=C3[C@@H](c3ccc(N(C)C(=O)Cc4ccccc4)cc3)C[C@@]21C`
Response given: 7

----------
test system: SUM149PT; experiment: Antiproliferative activity against human SUM149PT cells after 48 hrs by SRB assay; type: functional, cell-based
pIC50: −log10 of the molar value.
Please note: True applies when pIC50 is 5 or greater, and False applies otherwise.

>  <COMPOUND>
CC#C[C@]1(O)CC[C@H]2[C@@H]3CCC4=CC(=O)CCC4=C3[C@@H](c3ccc(N(C)C(=O)c4ccc(-c5ccccc5)cc4)cc3)C[C@@]21C

>  <LABEL CLASS>
False

$$$$
>  <COMPOUND>
CC#C[C@]1(O)CC[C@H]2[C@@H]3CCC4=CC(=O)CCC4=C3[C@@H](c3ccc(N(C)C(=O)c4ccc(C(C)(C)C)cc4)cc3)C[C@@]21C

>  <LABEL CLASS>
True

$$$$
>  <COMPOUND>
COc1cccc2c1C(=O)c1c(O)c3c(c(O)c1C2=O)C[C@@](O)(C(=O)CO)C[C@@H]3O[C@H]1C[C@H](N)[C@H](O)[C@H](C)O1 [DOXORUBICIN]

>  <LABEL CLASS>
True

$$$$
>  <COMPOUND>
CC#C[C@]1(O)CC[C@H]2[C@@H]3CCC4=CC(=O)CCC4=C3[C@@H](c3ccc(N(C)S(=O)(=O)c4ccccc4)cc3)C[C@@]21C

>  <LABEL CLASS>
False

$$$$
>  <COMPOUND>
CC#C[C@]1(O)CC[C@H]2[C@@H]3CCC4=CC(=O)CCC4=C3[C@@H](c3ccc(N(C)C(=O)c4ccc(Cl)c(F)c4)cc3)C[C@@]21C

>  <LABEL CLASS>
False

$$$$

Challenge: Can `CC#C[C@]1(O)CC[C@H]2[C@@H]3CCC4=CC(=O)CCC4=C3[C@@H](c3ccc(N(C)C(=O)c4cncs4)cc3)C[C@@]21C` be said to have pIC50 at or above 5?
Response given: False

Challenge: Can `CC#C[C@]1(O)CC[C@H]2[C@@H]3CCC4=CC(=O)CCC4=C3[C@@H](c3ccc(N(C)C(C)=O)cc3)C[C@@]21C` be said to have pIC50 at or above 5?
Response given: False
